Please provide measured fold difference in affinity vs original for the entries that follow.
biological target: binding partner of C5A (XPA23); experiment: Biacore, K-off
Form entry: value (fold) — number only.

Data request, read-out fold difference in affinity vs original, for C5A (XPA23) VH D106N (antibody, V domains shown) VH: EVQLLESGGGLVQPGGSLRLSCAASGFTFSKYFMFWVRQAPGKGLEWVSVISPSGGMTRYADSVKGRFTISRDNSKNTLYLQMNSLRAEDTAVYYCARVGYGGNSNYWGQGTLVTVSS VL: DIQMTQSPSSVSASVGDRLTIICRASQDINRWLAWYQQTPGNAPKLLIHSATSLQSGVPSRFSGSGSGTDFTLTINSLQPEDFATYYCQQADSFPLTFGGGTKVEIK
0.07

Please report the recorded fold difference in affinity vs original for C5A (XPA23) VH F35D (antibody, V domains shown) VH: EVQLLESGGGLVQPGGSLRLSCAASGFTFSKYFMDWVRQAPGKGLEWVSVISPSGGMTRYADSVKGRFTISRDNSKNTLYLQMNSLRAEDTAVYYCARVGYGGNSDYWGQGTLVTVSS VL: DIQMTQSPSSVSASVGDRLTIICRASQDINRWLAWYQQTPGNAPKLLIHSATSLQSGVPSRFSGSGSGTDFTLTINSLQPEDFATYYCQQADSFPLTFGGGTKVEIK .
0.06
